# experimental.details: Human steady-state pharmacokinetics of immediate release tramadol and O-desmethyltramadol (Example 7)
# experimental.setup: male, human, plasma, oral, 25 mg
Where a name gives a salt, the structure may show the parent alone.
experimental.endpoint: Tmax (h)
Kindly answer with a numeric value in h, unit omitted.

The molecule COc1cccc(C2(O)CCCCC2CN(C)C)c1 (racemic) [Tramadol HCl] showed Tmax equal to 1

====

# experimental.details: Human single-dose pharmacokinetics of immediate release tramadol and O-desmethyltramadol (Example 6)
# experimental.setup: male, human, plasma, po, 100 mg
Where a name gives a salt, the structure may show the parent alone.
experimental.endpoint: Cmax (ng/mL)
Please reply with the bare figure in ng/mL and do not write the unit itself.

Given item COc1cccc(C2(O)CCCCC2CN(C)C)c1 (racemic) [Tramadol HCl] , the value recorded as its Cmax is 274

====

# experimental.details: Human single-dose pharmacokinetics of immediate release tramadol and O-desmethyltramadol (Example 6)
# experimental.setup: male, human, plasma, po, 100 mg
Structures can show the parent of a compound that is named as a salt.
experimental.endpoint: AUC(0-t) (ng·h/mL)
# number only, unit ng·h/mL dropped from output

Form field AUC(0-t), entry COc1cccc(C2(O)CCCCC2CN(C)C)c1 (racemic) [Tramadol HCl] : 2460

====

# experimental.details: Human single-dose pharmacokinetics of immediate release tramadol and O-desmethyltramadol (Example 6)
# experimental.setup: male, human, plasma, po, 100 mg
Where a name gives a salt, the structure may show the parent alone.
experimental.endpoint: AUC
Be sure to follow the number with its unit.

Lab note: measured AUC of COc1cccc(C2(O)CCCCC2CN(C)C)c1 (racemic) [Tramadol HCl] was 2630 ng·h/mL

====

# experimental.details: Human steady-state pharmacokinetics of immediate release tramadol and O-desmethyltramadol (Example 7)
# experimental.setup: male, human, plasma, oral, 50 mg
Counter-ions that a name gives are not always drawn.
experimental.endpoint: Tmax
# include the unit after the value

Value of measured Tmax for the entry COc1cccc(C2(O)CCCCC2CN(C)C)c1 (racemic) [Tramadol HCl] : 1.13 h

====

# experimental.details: Human single-dose pharmacokinetics of immediate release tramadol and O-desmethyltramadol (Example 6)
# experimental.setup: male, human, plasma, po, 100 mg
Where a name gives a salt, the structure may show the parent alone.
experimental.endpoint: Half-Life (h)
Record the value in h, omitting the unit from your answer.

For reference, reported Half-Life for COc1cccc(C2(O)CCCCC2CN(C)C)c1 (racemic) [Tramadol HCl] stands at 5.9

====

# experimental.details: Human steady-state pharmacokinetics of immediate release tramadol and O-desmethyltramadol (Example 7)
# experimental.setup: male, human, plasma, oral, 100 mg
Where a name gives a salt, the structure may show the parent alone.
experimental.endpoint: Tmax
Write your answer as a measured quantity: the number, then the unit.

COc1cccc(C2(O)CCCCC2CN(C)C)c1 (racemic) [Tramadol HCl] yielded Tmax of 1.13 h
